- Test target: P70S6K (Homo sapiens, UniProt P23443, T412E)
- Sequence (P23443 whole entry T412E): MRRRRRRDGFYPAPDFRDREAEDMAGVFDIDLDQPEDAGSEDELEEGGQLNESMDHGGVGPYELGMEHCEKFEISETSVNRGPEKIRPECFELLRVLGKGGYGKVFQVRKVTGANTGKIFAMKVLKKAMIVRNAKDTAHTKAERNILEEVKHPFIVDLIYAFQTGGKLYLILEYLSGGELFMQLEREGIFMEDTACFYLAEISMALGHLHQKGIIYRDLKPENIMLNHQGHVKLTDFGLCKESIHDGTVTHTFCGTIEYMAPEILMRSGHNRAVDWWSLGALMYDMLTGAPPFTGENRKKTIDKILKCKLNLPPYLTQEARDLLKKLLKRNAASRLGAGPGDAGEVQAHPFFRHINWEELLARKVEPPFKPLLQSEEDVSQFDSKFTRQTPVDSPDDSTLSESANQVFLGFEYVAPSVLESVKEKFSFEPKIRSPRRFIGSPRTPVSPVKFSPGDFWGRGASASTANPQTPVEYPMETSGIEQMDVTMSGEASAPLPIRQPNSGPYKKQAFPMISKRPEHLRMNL
- Experiment description: P70S6K enzyme assay
- Measurement conditions: P70S6K T412E mutant 3 nM, 24 μM ATP, FITC-AHA-AKRRRLSSLRA-OH substrate, 90 min at 25° C.; read-out: IC50p70S6K
Property measured: IC50 (nM)

In the examples that follow, each entry is paired with its recorded IC50.
[[record]]
compound = "COc1ccc(C2CNCC2Nc2ncnc3c(C(N)=O)cccc23)cc1 (centres unmarked) [compound 6]"
property_measured = "IC50"
measured = 2

[[record]]
compound = "NC(=O)c1cccc2c(N[C@H]3CNC[C@@H]3c3cccc(C(F)(F)F)c3)ncnc12 [compound 50]"
property_measured = "IC50"
measured = 3

[[record]]
compound = "CCc1nc(N[C@@H]2CNCC[C@H]2c2cccc(C(F)(F)F)c2)c2cccc(C(N)=O)c2n1 (racemic) [compound 125]"
property_measured = "IC50"
measured = 3.9


I. NC(=O)c1cccc2c(N[C@H]3CNC[C@@H]3c3cccc(OC(F)(F)F)c3)ncnc12 [compound 57]
II. NC(=O)c1cccc2c(N[C@@H]3CNC[C@H]3C(=O)Nc3ccccc3)ncnc12 (relative stereo) [compound 26]
input: Which has the smaller recorded IC50, I or II ? // respond with label for picked entry
output: I
(I: 2.1 nM, II: 22 nM)
